# test: Assay C: Permeability in CACO-2 cells
# Assay type: in vitro ADME
# test-conditions: human, pH 7.2; Assay C, CACO-2 cells
Recorded measurements of Papp A→B, one per entry

Cn1cnnc1C1(F)CCN(c2c(C#N)cc(-c3cnc(C(F)(F)F)nc3)cc2-c2ccc(F)nc2)CC1 | 4.8 ×10⁻⁶ cm/s
Cc1nn(C)c(C)c1-c1cc(C#N)c(N2CCC(F)(c3nncn3C)CC2)c(-c2ccc(F)nc2)c1 | 11 ×10⁻⁶ cm/s
Cc1ncc(-c2cc(C#N)c(N3CCC(F)(c4nncn4C)CC3)c(-c3ccc(F)nc3)c2)cn1 | 4.8 ×10⁻⁶ cm/s
Cn1cnnc1C1(F)CCN(c2c(C#N)cc(-c3ccnnc3)cc2-c2ccc(F)nc2)CC1 | 0.7 ×10⁻⁶ cm/s
Cn1c(N)nnc1C1CCN(c2c(C#N)cccc2-c2ccc(F)nc2)CC1 [Compound 14, reference compound] | 0.7 ×10⁻⁶ cm/s
Cn1cnnc1C1CCN(c2c(-c3ccc(F)nc3)ccc(-c3ccnc(N)c3)c2C#N)CC1 [Compound 44, reference compound] | 0.5 ×10⁻⁶ cm/s
Cn1cnnc1C1(F)CCN(c2c(C#N)cc(-c3cccnc3)cc2-c2ccc(F)nc2)CC1 | 19 ×10⁻⁶ cm/s
Cn1cncc1C1CCN(c2c(C#N)cccc2-c2ccc(F)nc2)CC1 [QP5038, reference compound] | 61 ×10⁻⁶ cm/s

# ---- query molecule ----
Exercise: Form field: reported Papp A→B of Cc1ncc(-c2cc(C#N)c(N3CCC(F)(c4nncn4C)CC3)c(-c3ccc(F)nc3)c2)o1
Key: 26 ×10⁻⁶ cm/s
